Entry source: patent US11820822B2

Exercise: state measured Pmel+ (sgRNA Log(2) fold change, Pmel-1 selection versus control T cells) for each of the sequences provided.
Test system: B16F10-Cas9 cells co-cultured with Pmel-1 T cells
Experiment: Genome-scale CRISPR-Cas9 screen, selection with Pmel-1 T cells
Format: cell-based, mouse
Settings: Table 3; B16F10-Cas9 cells pre-treated with IFNγ, co-cultured with Pmel-1 T cells 1:1 for three days; negative = depleted, positive = enriched
Answer field: number only, no words.

IN: Enter reported Pmel+ (sgRNA Log(2) fold change, Pmel-1 selection versus control T cells) observed with B16F10-Cas9 cells co-cultured with Pmel-1 T cells for CCGCTCGAAGAAGCACTCCT (chemistry not fully specified)
OUT: 0.95

IN: Enter reported Pmel+ (sgRNA Log(2) fold change, Pmel-1 selection versus control T cells) observed with B16F10-Cas9 cells co-cultured with Pmel-1 T cells for AATGCTGACGACTTTCAATG (chemistry not fully specified)
OUT: 0.00

IN: Enter reported Pmel+ (sgRNA Log(2) fold change, Pmel-1 selection versus control T cells) observed with B16F10-Cas9 cells co-cultured with Pmel-1 T cells for TAAAAGTCCCTCCCTCAAAG (chemistry not fully specified)
OUT: 0.00

IN: Enter reported Pmel+ (sgRNA Log(2) fold change, Pmel-1 selection versus control T cells) observed with B16F10-Cas9 cells co-cultured with Pmel-1 T cells for GCAAGAGGTTATCAAACACG (chemistry not fully specified)
OUT: -0.79

IN: Enter reported Pmel+ (sgRNA Log(2) fold change, Pmel-1 selection versus control T cells) observed with B16F10-Cas9 cells co-cultured with Pmel-1 T cells for ATTTGGATTTCAATGTGAGG (chemistry not fully specified)
OUT: 3.20

IN: Enter reported Pmel+ (sgRNA Log(2) fold change, Pmel-1 selection versus control T cells) observed with B16F10-Cas9 cells co-cultured with Pmel-1 T cells for TGTGATGTTAGATAAACAGA (chemistry not fully specified)
OUT: 7.91

IN: Enter reported Pmel+ (sgRNA Log(2) fold change, Pmel-1 selection versus control T cells) observed with B16F10-Cas9 cells co-cultured with Pmel-1 T cells for ACAGGGAAAGCATGGGACAC (chemistry not fully specified)
OUT: 0.76

IN: Enter reported Pmel+ (sgRNA Log(2) fold change, Pmel-1 selection versus control T cells) observed with B16F10-Cas9 cells co-cultured with Pmel-1 T cells for CAAGAGCCAGACCTTGGATG (chemistry not fully specified)
OUT: 0.41

IN: Enter reported Pmel+ (sgRNA Log(2) fold change, Pmel-1 selection versus control T cells) observed with B16F10-Cas9 cells co-cultured with Pmel-1 T cells for ATGCAGATAATCCGCCAAAG (chemistry not fully specified)
OUT: 0.00

IN: Enter reported Pmel+ (sgRNA Log(2) fold change, Pmel-1 selection versus control T cells) observed with B16F10-Cas9 cells co-cultured with Pmel-1 T cells for GGATCCTGGCGATTCAACAT (chemistry not fully specified)
OUT: 0.74

###

Tested on: B16F10-Cas9 cells co-cultured with Pmel-1 T cells
Assay: Genome-scale CRISPR-Cas9 screen, selection with Pmel-1 T cells
Type: cell-based, mouse
Settings: Table 3; B16F10-Cas9 cells pre-treated with IFNγ, co-cultured with Pmel-1 T cells 1:1 for three days; negative = depleted, positive = enriched
Binary call on Pmel+ (sgRNA Log(2) fold change, Pmel-1 selection versus control T cells): true (1) from 0.8 upward, false (0) beneath that.

IN: Item TGTTCTAGGAAACTACATGG (chemistry not fully specified) with Pmel+ (sgRNA Log(2) fold change, Pmel-1 selection versus control T cells) of 0.8 or above?
OUT: true (1)

IN: Item TTACCCCCTACTACACTGGA (chemistry not fully specified) with Pmel+ (sgRNA Log(2) fold change, Pmel-1 selection versus control T cells) of 0.8 or above?
OUT: false (0)

IN: Item AAGACATATAGTTATCAGCA (chemistry not fully specified) with Pmel+ (sgRNA Log(2) fold change, Pmel-1 selection versus control T cells) of 0.8 or above?
OUT: false (0)

IN: Item GCCCTTTACTTTCAGTACGG (chemistry not fully specified) with Pmel+ (sgRNA Log(2) fold change, Pmel-1 selection versus control T cells) of 0.8 or above?
OUT: false (0)

IN: Item TGCACAGCATACACTAGTGA (chemistry not fully specified) with Pmel+ (sgRNA Log(2) fold change, Pmel-1 selection versus control T cells) of 0.8 or above?
OUT: false (0)

IN: Item GACAAGATGACAAACCTGGT (chemistry not fully specified) with Pmel+ (sgRNA Log(2) fold change, Pmel-1 selection versus control T cells) of 0.8 or above?
OUT: true (1)

IN: Item ACTCACTCTGGATAGCATAC (chemistry not fully specified) with Pmel+ (sgRNA Log(2) fold change, Pmel-1 selection versus control T cells) of 0.8 or above?
OUT: true (1)

IN: Item TGTAATGTAGGTCTCCCAGG (chemistry not fully specified) with Pmel+ (sgRNA Log(2) fold change, Pmel-1 selection versus control T cells) of 0.8 or above?
OUT: false (0)

IN: Item AGGGAACCTCACTTCCAAGT (chemistry not fully specified) with Pmel+ (sgRNA Log(2) fold change, Pmel-1 selection versus control T cells) of 0.8 or above?
OUT: true (1)

IN: Item TCAGGATGCTGTGATAAGCG (chemistry not fully specified) with Pmel+ (sgRNA Log(2) fold change, Pmel-1 selection versus control T cells) of 0.8 or above?
OUT: true (1)

IN: Item GAGATCTGCACATTCCGCAC (chemistry not fully specified) with Pmel+ (sgRNA Log(2) fold change, Pmel-1 selection versus control T cells) of 0.8 or above?
OUT: false (0)

IN: Item TGGACCTCCGAAAAACATCT (chemistry not fully specified) with Pmel+ (sgRNA Log(2) fold change, Pmel-1 selection versus control T cells) of 0.8 or above?
OUT: true (1)

IN: Item CCTGGGTACCAACTGACGAA (chemistry not fully specified) with Pmel+ (sgRNA Log(2) fold change, Pmel-1 selection versus control T cells) of 0.8 or above?
OUT: false (0)

IN: Item AGAAGCCACTCGGACTACTG (chemistry not fully specified) with Pmel+ (sgRNA Log(2) fold change, Pmel-1 selection versus control T cells) of 0.8 or above?
OUT: true (1)

IN: Item CCAAACACCCCACATATGGT (chemistry not fully specified) with Pmel+ (sgRNA Log(2) fold change, Pmel-1 selection versus control T cells) of 0.8 or above?
OUT: false (0)

IN: Item ATGGGATTGATCGTTACTGG (chemistry not fully specified) with Pmel+ (sgRNA Log(2) fold change, Pmel-1 selection versus control T cells) of 0.8 or above?
OUT: false (0)

IN: Item GAATGATATTATAGCGACGA (chemistry not fully specified) with Pmel+ (sgRNA Log(2) fold change, Pmel-1 selection versus control T cells) of 0.8 or above?
OUT: false (0)

IN: Item GATGTGTCCCTAGTCTACCG (chemistry not fully specified) with Pmel+ (sgRNA Log(2) fold change, Pmel-1 selection versus control T cells) of 0.8 or above?
OUT: false (0)

IN: Item AGCGTATAATCTTCGATCAG (chemistry not fully specified) with Pmel+ (sgRNA Log(2) fold change, Pmel-1 selection versus control T cells) of 0.8 or above?
OUT: true (1)
